Measured Ratio, listed per entry for reference.
- MEASURED_ON: UniProt Q9S446
- TEST_METHOD_NOTES: Binding affinity to Staphylococcus aureus SrtA assessed as kinact/ki

Check out these entries, answers already filled in.
[[record]]
molecule = "O=c1cc(CO)oc(C(Nc2ccccn2)c2ccsc2)c1O (stereo not given)"
measured_on = "UniProt Q9S446"
recorded_metric = "Ratio"
reported_result = "0.7 10^3/M/min"

[[record]]
molecule = "CCOc1c(SSc2cnn(-c3cccc(C(=N)N)c3)c(=O)c2OCC)cnn(-c2cccc(C(=N)N)c2)c1=O"
measured_on = "UniProt Q9S446"
recorded_metric = "Ratio"
reported_result = "3.6 10^4/M/min"

[[record]]
molecule = "O=c1cc(CO)oc(C(Nc2ccccn2)c2ccc(F)cc2)c1O (stereo not given)"
measured_on = "UniProt Q9S446"
recorded_metric = "Ratio"
reported_result = "1.4 10^3/M/min"

[[record]]
molecule = "O=c1cc(CO)oc(C(Nc2ccccn2)c2ccc(C(F)(F)F)cc2)c1O (stereo not given)"
measured_on = "UniProt Q9S446"
recorded_metric = "Ratio"
reported_result = "1.7 10^3/M/min"

[[record]]
molecule = "COc1ccc(C(Nc2ccccn2)c2oc(CO)cc(=O)c2O)cc1 (stereo not given)"
measured_on = "UniProt Q9S446"
recorded_metric = "Ratio"
reported_result = "1.8 10^3/M/min"


Q: Any idea what its Ratio is? The molecule is CCSSc1ccccc1C(=O)NCC(=O)NCC1CCCCC1
Result: 7.13 10^4/M/min

Q: Any idea what Ratio was measured for CCSSc1ccccc1C(=O)NCC(=O)N(C1CCCCC1)C1CCCCC1 ?
Result: 6.39 10^4/M/min

Q: Which Ratio value belongs to CCSSc1ccccc1C(=O)NCC(=O)Nc1ccc(F)cc1 ?
Result: 6.14 10^4/M/min

Q: Could you tell me which Ratio is on file for CSSc1ccccc1C(=O)NCC(=O)NC12CC3CC(CC(C3)C1)C2 ?
Result: 5.93 10^4/M/min

Q: Ratio for CCSSc1ccccc1C(=O)NCC(=O)NC12CC3CC(CC(C3)C1)C2 ?
Result: 5.79 10^4/M/min

Q: If you can, please state the reported Ratio value of O=c1cc(CO)oc(C(Nc2ccccn2)c2cccc(F)c2)c1O (stereo not given) .
Result: 2.4 10^3/M/min

Q: Need Ratio, item CSSc1ccccc1C(=O)N1CCC[C@H]1C(=O)NC12CC3CC(CC(C3)C1)C2
Result: 5.75 10^4/M/min

Q: Give the measured Ratio of CCSSc1ccccc1C(=O)N[C@H](CC(=O)O)C(=O)Nc1cccc(Oc2ccccc2)c1 .
Result: 8.21 10^4/M/min

Q: Endpoint output: Ratio of CCSSc1ccccc1C(=O)NCC(=O)Nc1cccc(Oc2ccccc2)c1 . Value?
Result: 7.24 10^4/M/min

Q: Given the molecule O=c1c(OCCCO)c(SSc2cnn(-c3cccc(F)c3)c(=O)c2OCCCO)cnn1-c1cccc(F)c1 , what is its reported Ratio?
Result: 1.8 10^4/M/min
